The following compounds are shown together with reported IRF reporter values.
# System: RAW-Dual (murine macrophage reporter line)
# experiment: IRF reporter (Lucia luciferase) activity fold change vs agonist alone; higher = enhanced IRF activity
# test conditions: modulator concentration 10 µM; agonist: MPLA […]
Answer with a bare number; do not write a unit.

• Cc1ccc(C2(c3ccc(C)cc3)CC2C(=O)Nc2cccnc2)cc1 (configuration not stated) = 0.91

*Q* Need IRF reporter of Cc1cccc(C(=O)N2N=C(C3CCCCC3)CC2(O)C(F)(F)F)c1O (configuration not stated) , thanks.
*A* 1.52

*Q* Which IRF reporter is reported for this compound? COc1cccc2c1C(=O)c1c(O)c3c(c(O)c1C2=O)C[C@@](O)(C(=O)CO)C[C@@H]3O[C@H]1C[C@H](N)[C@H](O)[C@H](C)O1
*A* 0.0335

*Q* May I ask what IRF reporter has been recorded for Cc1ccc(S(=O)(=O)N2CCC2)cc1 ?
*A* 1.51

---

# System: RAW-Dual (murine macrophage reporter line)
# experiment: IRF reporter (Lucia luciferase) activity fold change vs agonist alone; higher = enhanced IRF activity
# test conditions: modulator concentration 10 µM; agonist: 3'3'-cGAMP 10 ug/mL
As shown below, each of these compounds has a reported IRF reporter value.
# print the numeric value only

These solved cases illustrate the format of a correct answer.
- COc1ccc(-c2coc3cc(O)ccc3c2=O)cc1: 0.904
- O=C(CSc1nc(-c2ccccc2)c(-c2ccccc2)o1)N1CCOCC1: 0.954
- CCCCCCCCCCCC(CC1OC(=O)C1CCCCCC)OC(=O)C(CC(C)C)NC=O (configuration not stated): 0.475
- COc1ccnc(CS(=O)c2nc3ccc(OC(F)F)cc3[nH]2)c1OC (configuration not stated): 0.901
- Cc1[nH]c(/C=C2\C(=O)Nc3ccccc32)c(C)c1CCC(=O)O: 0.618

*Q* IRF reporter lookup needed for CC1=C(C(=O)OCc2ccc3c(c2)OCO3)C(c2ccc(Cl)c(Cl)c2)NC(=O)N1 (configuration not stated) , thanks.
*A* 0.458

*Q* Quick one: IRF reporter for CC(=O)Nc1ccc(NC(=S)NC(=O)C=Cc2ccc(Cl)cc2)cc1 ?
*A* 0.838

*Q* Look up IRF reporter: C=C1CCN([C@H](C)[C@](O)(Cn2cncn2)c2ccc(F)cc2F)CC1
*A* 1.19

*Q* Look up IRF reporter for this compound: COc1ccccc1-c1cc(-c2ccccc2)nc(SCC(N)=O)c1C#N
*A* 0.596

*Q* What IRF reporter value was documented for this compound, O=C(O)CCC(=O)O.O=C(O[C@H]1CN2CCC1CC2)N1CCc2ccccc2[C@@H]1c1ccccc1 ?
*A* 0.921

---

Below, each entry is listed with its recorded NF-kB reporter.
# Tested on: RAW-Dual (murine macrophage reporter line)
# experiment: NF-kB reporter (SEAP) activity fold change vs agonist alone; higher = enhanced NF-kB activity
# test conditions: modulator concentration 10 µM; agonist: LPS 0.1 ug/mL
Number only, please.

• O=C(Nc1cc(C(F)(F)F)cc(C(F)(F)F)c1)c1cc(Br)ccc1Cl = 1.02
• CC1CC(OC(=O)C(O)c2ccccc2)CC(C)(C)C1 (stereo not given) = 1.02
• Cn1nccc1-c1ccc(CNC(=O)c2cc(Br)cs2)cn1 = 0.974

*Q* What value of measured NF-kB reporter is listed for COc1ccc(CCNC(=O)NCc2nnc3n2CCC(C(F)(F)F)C3)cc1 (stereo not given) ?
*A* 1.02

*Q* Fill in the blank: the reported NF-kB reporter of COCC(=O)Nc1c(C(=O)Nc2ccc(OC(F)(F)F)cc2)oc2ccccc12 is ____.
*A* 1.24

*Q* Which NF-kB reporter value belongs to O=C(NCC1(c2ccc(F)cc2)CCOCC1)c1cnc2ccccc2n1 ?
*A* 1.1

*Q* Reported NF-kB reporter for O=C(c1cc(C(F)(F)F)cc(C(F)(F)F)c1)N1CCOCC1CO (stereo not given) : what is it?
*A* 1.03

*Q* # NF-kB reporter lookup, item CCc1nc2ccc(C(=O)NC3CCC(n4cccn4)CC3)cc2s1 (stereo not given)
*A* 1.04

*Q* So what's the measured NF-kB reporter for this one? CC(=O)ON=C1C(C)=C(C#N)C2C1C2(C)C (stereo not given)
*A* 1.01

*Q* Param item = Nc1ccccc1NC(=O)c1ccc(CNc2nccc(-c3cccnc3)n2)cc1 ; retrieve measured NF-kB reporter.
*A* 1.73
